Measured optical density, listed per entry.
Assayed target: T1, human ACVR2A (human, UniProt P27037 20-135, limits assumed); also: test concentration or dose not given here
T1 construct: coated antigen of the initial ELISA; also called activin receptor, type II A
T1 sequence (P27037 20-135 limits assumed): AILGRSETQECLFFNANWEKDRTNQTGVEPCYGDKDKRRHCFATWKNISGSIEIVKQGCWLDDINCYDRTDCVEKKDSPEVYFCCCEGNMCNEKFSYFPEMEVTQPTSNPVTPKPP
Assay explanation: ELISA
Protocol: The binding of ACVR2A-specific monoclonal antibodies to human ACVR2A, mouse ACVR2A, biotinylated goat anti-human kappa light chain (positive control) and human Fc (negative control) were determined by ELISA.
State just the number; it will be interpreted in OD.

{"columns": ["Binder", "Reported"],
 "data": [
  ["370_H07 (antibody, V domains shown, Group III) VH: EVQLLESGGGLVQPGGSLRLSCAASGFTFSSYSMNWVRQAPGKGLEWVAGINYNGGYKSYADSVKGRFTISRDNSKNTLYLQMNSLRAEDTAVYYCARGANWHDTALDYWGQGTLVTVSS VL: DIQMTQSPSSLSASVGDRVTITCRASQSILSYLNWYQQKPGKAPKLLIYAATSLASGVPSRFSGSGSGTDFTLTISSLQPEDFATYYCQQSDSSPLTFGGGTKVEIK", 3],
  ["375_E02 (antibody, V domains shown, Group III) VH: EVQLLESGGGLVQPGGSLRLSCAASGFTFSDYSMNWVRQAPGKGLEWVAGINYNGGYTSYADSVKGRFTISRDNSKNTLYLQMNSLRAEDTAVYYCARGANWHDTALDYWGQGTLVTVSS VL: DIQMTQSPSSLSASVGDRVTITCRASQSILTYLNWYQQKPGKAPKLLIYAATSRASGVPSRFSGSGSGTDFTLTISSLQPEDFATYYCQQSYSSPLTFGGGTKVEIK", 3.58],
  ["375_D01 (antibody, V domains shown, Group III) VH: EVQLLESGGGLVQPGGSLRLSCAASGFTFSSYSMNWVRQAPGKGLEWVSGINYNGGYTGYADSVKGRFTISRDNSKNTLYLQMNSLRAEDTAVYYCARGANWHDTALDYWGQGTLVTVSS VL: DIQMTQSPSSLSASVGDRVTITCRASQSILTYLNWYQQKPGKAPKLVIYAATSRASGVPSRFSGSGSGTDFTLTISSLQPEDFATYYCQQSYETPLTFGGGTKVEIK", 3.3]
]}

Entry 373_H07 (antibody, V domains shown, Group III) VH: EVQLLESGGGLVQPGGSLRLSCAASGFTFSSYSMNWVRQAPGKGLEWVAGINYNGGYTSYADSVKGRFTISRDNSKNTLYLQMNSLRAEDTAVYYCARGANWHDTHLDYWGQGTLVTVSS VL: DIQMTQSPSSLSASVGDRVTITCRASQSIVTYLNWYQQKPGKAPKLLIYAASSLQSGVPSRFSGSGSGTDFTLTISSLQPEDFATYYCQQSYDSPLTFGGGTKVEIK , optical density reported as 3.25

Form field optical density, entry 376_C04 (antibody, V domains shown, Group III) VH: EVQLLESGGGLVQPGGSLRLSCAASGFTFSSYGMNWVRQAPGKGLEWVSNINYNGGYTGYADSVKGRFTISRDNSKNTLYLQMNSLRAEDTAVYYCARGANWHDTALDYWGQGTLVTVSS VL: DIQMTQSPSSLSASVGDRVTITCRASQSILSYVNWYQQKPGKAPKLLIYAVTSRHSGVPSRFSGSGSGTDFTLTISSLQPEDFATYYCQQSYDNPLTFGGGTKVEIK : 3.63

In plain terms, 376_B03 (antibody, V domains shown, Group III) VH: EVQLLESGGGLVQPGGSLRLSCAASGFTFSSYSMNWVRQAPGKGLEWVAGINYNSGYKSYADSVKGRFTISRDNSKNTLYLQMNSLRAEDTAVYYCARGANWHDTALDYWGQGTLVTVSS VL: DIQMTQSPSSLSASVGDRVTITCRASQSILSYVNWYQQKPGKAPKLVIYAVTSRHSGVPSRFSGSGSGTDFTLTISSLQPEDFATYYCQQSYDSPLTFGGGTKVEIK has a documented optical density of 3.68

Lab note: 368_C02 (antibody, V domains shown, Group III) VH: EVQLLESGGGLVQPGGSLRLSCAASGFTFDDYSMNWVRQAPGKGLEWVANINYNGGYKGYADSVKGRFTISRDNSKNTLYLQMNSLRAEDTAVYYCARGANWHDTHLDYWGQGTLVTVSS VL: DIQMTQSPSSLSASVGDRVTITCRASQSISTYVNWYQQKPGKAPKLLIYAATSLASGVPSRFSGSGSGTDFTLTISSLQPEDFATYYCQQSYSTPLTFGGGTKVEIK gave optical density of 1.38

Form field optical density, entry 372_B02 (antibody, V domains shown, Group III) VH: EVQLLESGGGLVQPGGSLRLSCAASGFTFSSYSMNWVRQAPGKGLEWVSGINYNSGYTSYADSVKGRFTISRDNSKNTLYLQMNSLRAEDTAVYYCARGANWHDTALDYWGQGTLVTVSS VL: DIQMTQSPSSLSASVGDRVTITCRASQSILSYVNWYQQKPGKAPKLLIYAVTSLASGVPSRFSGSGSGTDFTLTISSLQPEDFATYYCQQSYETPLTFGGGTKVEIK : 3.17

Measured optical density, 370_F03 (antibody, V domains shown, Group III) VH: EVQLLESGGGLVQPGGSLRLSCAASGFTFSSYGMNWVRQAPGKGLEWVSSINYNSGYKSYADSVKGRFTISRDNSKNTLYLQMNSLRAEDTAVYYCARGANWHDTALDYWGQGTLVTVSS VL: DIQMTQSPSSLSASVGDRVTITCRASQSILSYVNWYQQKPGKAPKLLIYAATSRASGVPSRFSGSGSGTDFTLTISSLQPEDFATYYCQQSYENPLTFGGGTKVEIK : 1.14

Record summary for 374_C12 (antibody, V domains shown, Group III) VH: EVQLLESGGGLVQPGGSLRLSCAASGFTFSSYSMNWVRQAPGKGLEWVAGINYNGGYKSYADSVKGRFTISRDNSKNTLYLQMNSLRAEDTAVYYCARGANWHDTALDYWGQGTLVTVSS VL: DIQMTQSPSSLSASVGDRVTITCRASQSILTYLNWYQQKPGKAPKLVIYAATSRASGVPSRFSGSGSGTDFTLTISSLQPEDFATYYCQQSDNSPLTFGGGTKVEIK : reported optical density = 3.67
